subject.of.test: T1, dimeric human PRLR (hPRLR.mFc; SEQ ID NO:402) (Homo sapiens, UniProt P16471)
T1 construct: dimeric (hPRLR.mFc)
assay.protocol: Surface plasmon resonance (Biacore T200), antibody-capture format
Format: binding
condition.info: 25° C., analyte hPRLR.mFc
Assign ka to each entry below.
Give bare numbers, in M/s.

The cases that follow already have their ka on record.
H1H6782P: fully human anti-PRLR antibody, non-blocking; HCVR/LCVR SEQ ID NOs 66/74 (antibody, V domains shown) VH: EVQLVESGGGLVQPGRSLRLSCAASGFTFDDYAMHWVRQAPGKGLEWVSGIIWNSGHIGYGDSVKGRFTISRDNAKKSLYLQMNSLRAEDTALYYCARDSGRYQSYFDYWGQGTLVTVSS VL: DIQMTQSPSTLSASVGDRVTITCRASHIISSWLAWYQQKPGKAPKVLIFKASSLESGVPSRFSGSGSGTEFTLTISSLQPDDFATYYCQQYNTYSRTFGQGTKVEIK
317000
H1H6795P: fully human anti-PRLR antibody, human IgG1 Fc; HCVR/LCVR SEQ ID NOs 162/170 (antibody, V domains shown) VH: QVQLVQSGAEVKKPGASVKVSCKASGYTFGTSGITWVRQAPGQGLEWMGWSSAYNGKTDYAQKFQDRVTMTTDTSTTTGYMEMRSLTSDDTAVYYCTTVVRRPFDFWGQGTLVTVSS VL: DIQMTQSPSSLSASVGDRVTITCRASQDINNFLAWFQQKPGKAPKSLIYAASSLQSGVPSKFSGGGSGTDFALTISSLQPEDFATYYCQQYSSYPITFGQGTRLEIK
1.54e+06
H1H6762P: fully human anti-PRLR antibody, human IgG1 Fc; HCVR/LCVR SEQ ID NOs 2/10 (antibody, V domains shown) VH: QVQLVESGGGVVQPGRSLRLSCAASGFTFSHYGMVWVRQPPGKGLEWVALISFDGTTKYYADSVKGRFTISRDNSKNTLYLQMNSLRAEDTAVYFCVGAIAAAAFDLWGRGTLVTVSS VL: EIVMTQSPATLSVSPGERATLSCRASQSVSSDLAWYQQKPGQAPRLLIYSASARATGIPARFTGSGSGTDFTLTISSLQSEDFAVYYCQQYNNWPMYTFGQGTKLEIK
651000

Batch: ka for all items listed.
1. H1H6785P: fully human anti-PRLR antibody, human IgG1 Fc; HCVR/LCVR SEQ ID NOs 98/106 (antibody, V domains shown) VH: EVQLVESGGGLVQPGGSLRLSCAASGFTFSSYEMNWVRQAPGKGLEWISYISSRGGTIYYADSIKGRFTIYRDNARNSLYLQMNSLRAEDTAIYYCARLSGVDIFDIWGQGTMVTVSS VL: DIQMTQSPSSLSASVGDRVTITCRASQGISNYLAWYQQKPGKVPKLLIYFASTLQSGVPSRFSGGGSGTDFTLTISSLQPEDVATYYCQRYNSAPLTFGGGTKVEIK
2. H1H6801P: fully human anti-PRLR antibody, human IgG1 Fc; HCVR/LCVR SEQ ID NOs 210/218 (antibody, V domains shown) VH: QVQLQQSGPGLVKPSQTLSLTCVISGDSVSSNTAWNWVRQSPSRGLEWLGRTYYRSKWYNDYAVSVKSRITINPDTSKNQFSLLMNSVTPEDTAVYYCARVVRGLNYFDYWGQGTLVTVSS VL: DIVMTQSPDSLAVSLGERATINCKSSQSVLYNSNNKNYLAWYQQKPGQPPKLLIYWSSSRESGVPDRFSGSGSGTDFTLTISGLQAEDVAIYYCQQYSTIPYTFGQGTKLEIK
3. H1H6953N: anti-PRLR antibody, human IgG1 Fc form of H1M6953N of Table 1; HCVR/LCVR SEQ ID NOs 274/282 (antibody, V domains shown) VH: EVQLLESGGGLVQPGGTLRLSCAASGFTFSAYAMSWVRQAPGKGLEWVSSINVRAGDTYYADSVKGRFTISRDNSKNTLFLLMNSLRAEDTAAYYCAKARYSSNWGFDFWGQGTLVTVSS VL: DIVMTQSPDSLTVSLGARTTINCQSSQTILHSSNNHNYLAWYQQKPGLPPKLLIYWSSTRESGVPDRFSGSGSGTDFTLTISSLQAEDVAIYYCQQYSNTPYTFGQGTKLEIN
4. H1H6967N: anti-PRLR antibody, human IgG1 Fc form of H2M6967N of Table 1; HCVR/LCVR SEQ ID NOs 354/362 (antibody, V domains shown, human IgG1 Fc) VH: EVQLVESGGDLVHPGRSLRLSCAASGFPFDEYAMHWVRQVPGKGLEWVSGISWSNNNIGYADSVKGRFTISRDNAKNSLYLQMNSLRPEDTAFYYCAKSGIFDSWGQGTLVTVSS VL: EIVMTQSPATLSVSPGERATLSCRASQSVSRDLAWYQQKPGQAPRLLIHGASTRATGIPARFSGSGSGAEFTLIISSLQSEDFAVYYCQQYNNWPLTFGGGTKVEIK
5. H1H6800P: fully human anti-PRLR antibody, human IgG1 Fc; HCVR/LCVR SEQ ID NOs 194/202 (antibody, V domains shown) VH: EVQLVESGGGLVQPGRSLRLSCAASGFTFDGYAMHWVRQGPGKGLEWVSGISWYSDTLGYADSVKGRFTISRDNAKNSLYLQMNSLRTEDTAFYYCAKISSSGWAFDYWGQGTLVTVSS VL: EIVLTQSPGTLSLSPGERATLSCRASHSVSSAYLAWYQQKPGQTPRLLIYGTSSRATGIPDRFSGSGSGTDFTLTISRLEPEDFAVYYCQQYGSSPLFTFGPGTKVDIK

A.
1. 263000
2. 675000
3. 711000
4. 407000
5. 473000
